target: human Cereblon WT GST-tagged protein (Homo sapiens); construct: purchased CISBIO 64BDCRBNPEH; experiment: CRBN-binding affinity, HTRF (CEREBLON BINDING kit); settings: read-out: Inhibition Rate at 2 µM (%)
endpoint.name: inhibition at 2 µM

Consider the worked cases shown below.
[[record]]
compound = "O=C1CCC(N2Cc3c(CN4CC=C(c5ccnc(F)c5F)CC4)cccc3C2=S)C(=O)N1 (stereo not shown)"
measured_result = "60 to 80%"

[[record]]
compound = "O=C1CCC(N2Cc3cc(CN4CCN(c5ccnc(Cl)c5F)CC4)ccc3C2=S)C(=O)N1 (stereo not shown)"
measured_result = "80 to 100%"


QUERY: Return the recorded inhibition at 2 µM value; entry: Cc1nc(N2CCN(Cc3cccc4c3CN(C3CCC(=O)NC3=O)C4=S)CC2)c2ccsc2n1 (stereo not shown)
RESULT: 80 to 100%

QUERY: Return the recorded inhibition at 2 µM value; entry: Cn1cc(C2CCN(Cc3cccc4c3CN(C3CCC(=O)NC3=O)C4=S)CC2)c2ccc(F)cc21 (stereo not shown)
RESULT: 60 to 80%

###

biological target: human Cereblon WT GST-tagged protein (Homo sapiens, UniProt Q96SW2); construct: purchased CISBIO 64BDCRBNPEH; assay: CRBN-binding affinity, HTRF (CEREBLON BINDING kit); settings: read-out: Inhibition Rate at 0.5 µM (%)
Sequence (Q96SW2 whole entry): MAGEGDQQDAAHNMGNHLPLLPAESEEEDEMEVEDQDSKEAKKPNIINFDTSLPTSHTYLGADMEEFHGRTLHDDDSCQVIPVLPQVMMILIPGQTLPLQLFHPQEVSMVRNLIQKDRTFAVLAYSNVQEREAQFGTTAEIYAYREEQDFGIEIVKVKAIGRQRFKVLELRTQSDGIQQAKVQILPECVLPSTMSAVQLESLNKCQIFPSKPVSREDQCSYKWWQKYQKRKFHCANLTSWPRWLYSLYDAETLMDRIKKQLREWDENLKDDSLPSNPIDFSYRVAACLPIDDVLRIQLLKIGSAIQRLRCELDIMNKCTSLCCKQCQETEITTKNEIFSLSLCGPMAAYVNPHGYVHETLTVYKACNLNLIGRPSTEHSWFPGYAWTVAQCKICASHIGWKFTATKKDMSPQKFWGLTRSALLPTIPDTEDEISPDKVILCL
Here, each record is paired with measured inhibition at 0.5 µM data.

Consider the worked cases shown below.
[[record]]
compound = "O=C1CCC(N2Cc3cc(CN4CCN(c5cc(F)ccc5F)CC4)ccc3C2=S)C(=O)N1 (stereo not drawn)"
measured_result = "60 to 80%"

[[record]]
compound = "O=C1CCC(N2Cc3c(CN4CCC(c5ccoc5)CC4)cccc3C2=S)C(=O)N1 (stereo not drawn)"
measured_result = "40 to 53%"


Read the next record carefully.
QUERY: Return the recorded inhibition at 0.5 µM value; entry: COc1ccccc1N1CCN(Cc2cccc3c2CN(C2CCC(=O)NC2=O)C3=S)CC1 (stereo not drawn)
RESULT: 60 to 80%

###

target: human Cereblon WT GST-tagged protein (Homo sapiens); construct: purchased CISBIO 64BDCRBNPEH; experiment: CRBN-binding affinity, HTRF (CEREBLON BINDING kit); settings: read-out: Inhibition Rate at 2 µM (%)
endpoint.name: inhibition at 2 µM

[[record]]
molecule = "O=C1CCC(N2Cc3c(CN4CCN(c5cc(F)ccc5F)CC4)cccc3C2=S)C(=O)N1 (stereo not drawn)"
test_system = "human Cereblon WT GST-tagged protein (Homo sapiens)"
measured_result = "60 to 80%"

[[record]]
molecule = "O=C1CCC(N2Cc3c(CN4CCN(c5ccc(F)c(F)c5)CC4)cccc3C2=S)C(=O)N1 (stereo not drawn)"
test_system = "human Cereblon WT GST-tagged protein (Homo sapiens)"
measured_result = "80 to 100%"

[[record]]
molecule = "Cc1cc(C2=CCN(Cc3ccc4c(c3)CN(C3CCC(=O)NC3=O)C4=S)CC2)cs1 (stereo not drawn)"
test_system = "human Cereblon WT GST-tagged protein (Homo sapiens)"
measured_result = "80 to 100%"

[[record]]
molecule = "O=C1CCC(N2Cc3cc(CN4CC=C(c5ncnc6scc(-c7ccccc7)c56)CC4)ccc3C2=S)C(=O)N1 (stereo not drawn)"
test_system = "human Cereblon WT GST-tagged protein (Homo sapiens)"
measured_result = "80 to 100%"

[[record]]
molecule = "O=C1CCC(N2Cc3cc(CN4CCC(N5C(=O)COc6cc(F)ccc65)CC4)ccc3C2=S)C(=O)N1 (stereo not drawn)"
test_system = "human Cereblon WT GST-tagged protein (Homo sapiens)"
measured_result = "80 to 100%"

[[record]]
molecule = "O=C1CCC(N2Cc3c(CN4C5CC4CN(c4cccc(Cl)c4Cl)C5)cccc3C2=S)C(=O)N1 (stereo not drawn)"
test_system = "human Cereblon WT GST-tagged protein (Homo sapiens)"
measured_result = "60 to 80%"

[[record]]
molecule = "O=C1CCC(N2Cc3c(CN4CCN(c5cccnc5)CC4)cccc3C2=S)C(=O)N1 (stereo not drawn)"
test_system = "human Cereblon WT GST-tagged protein (Homo sapiens)"
measured_result = "80 to 100%"

[[record]]
molecule = "O=C1CCC(N2Cc3c(CN4CCCN(c5cccc(Cl)c5Cl)CC4)cccc3C2=S)C(=O)N1 (stereo not drawn)"
test_system = "human Cereblon WT GST-tagged protein (Homo sapiens)"
measured_result = "80 to 100%"


QUERY: Return the recorded inhibition at 2 µM value; entry: O=C1CCC(N2Cc3c(CN4CCC(c5ccc(Br)cc5)CC4)cccc3C2=S)C(=O)N1 (stereo not drawn)
RESULT: 60 to 80%

QUERY: Return the recorded inhibition at 2 µM value; entry: O=C1CCC(N2Cc3c(CN4CCC(N(c5ccccc5)c5ccccc5)CC4)cccc3C2=S)C(=O)N1 (stereo not drawn)
RESULT: 80 to 100%

QUERY: Return the recorded inhibition at 2 µM value; entry: O=C1CCC(N2Cc3c(CN4CCN(c5cncc(Cl)c5Cl)CC4)cccc3C2=S)C(=O)N1 (stereo not drawn)
RESULT: 80 to 100%

QUERY: Return the recorded inhibition at 2 µM value; entry: O=C1CCC(N2Cc3cc(CN4CCN(c5ccc(Cl)c(Cl)c5)CC4)ccc3C2=S)C(=O)N1 (stereo not drawn)
RESULT: 60 to 80%

###

target: human Cereblon WT GST-tagged protein (Homo sapiens, UniProt Q96SW2); construct: purchased CISBIO 64BDCRBNPEH; experiment: CRBN-binding affinity, HTRF (CEREBLON BINDING kit); conditions: read-out: Inhibition Rate at 0.5 µM (%)
endpoint.name: inhibition at 0.5 µM

Consider the worked cases shown below.
[[record]]
compound = "O=C1CCC(N2Cc3c(CN4CCC(c5ncnc6sc7c(c56)CCC7)CC4)cccc3C2=S)C(=O)N1 (stereo not drawn) [GT-08934]"
test_system = "human Cereblon WT GST-tagged protein (Homo sapiens, UniProt Q96SW2)"
measured_result = "40 to 53%"

[[record]]
compound = "Cc1cc2c(N3CCN(Cc4ccc5c(c4)CN(C4CCC(=O)NC4=O)C5=S)CC3)ncnc2s1 (stereo not drawn) [GT-09282]"
test_system = "human Cereblon WT GST-tagged protein (Homo sapiens, UniProt Q96SW2)"
measured_result = "60 to 80%"

[[record]]
compound = "Cc1nc(C2CCN(Cc3cccc4c3CN(C3CCC(=O)NC3=O)C4=S)CC2)c2ccsc2n1 (stereo not drawn) [GT-08932]"
test_system = "human Cereblon WT GST-tagged protein (Homo sapiens, UniProt Q96SW2)"
measured_result = "60 to 80%"

[[record]]
compound = "O=C1CCC(N2Cc3cc(CN4CC5CCC4CN5c4cccc(Cl)c4Cl)ccc3C2=S)C(=O)N1 (stereo not drawn) [GT-08478]"
test_system = "human Cereblon WT GST-tagged protein (Homo sapiens, UniProt Q96SW2)"
measured_result = "40 to 53%"

[[record]]
compound = "Cc1nc(N2CCN(Cc3cccc4c3CN(C3CCC(=O)NC3=O)C4=S)CC2)c2c3c(sc2n1)CCCC3 (stereo not drawn) [GT-08923]"
test_system = "human Cereblon WT GST-tagged protein (Homo sapiens, UniProt Q96SW2)"
measured_result = "30 to 40%"


QUERY: Return the recorded inhibition at 0.5 µM value; entry: O=C1CCC(N2Cc3cc(CN4CCN(c5n[nH]c6cc(F)ccc56)CC4)ccc3C2=S)C(=O)N1 (stereo not drawn) [GT-09260]
RESULT: 60 to 80%

###

target: human Cereblon WT GST-tagged protein (Homo sapiens); construct: purchased CISBIO 64BDCRBNPEH; experiment: CRBN-binding affinity, HTRF (CEREBLON BINDING kit); details: read-out: Inhibition Rate at 0.5 µM (%)
Here, each record is paired with measured inhibition at 0.5 µM data.

[[record]]
compound = "Cc1ccc(Cl)cc1N1CCN(Cc2cccc3c2CN(C2CCC(=O)NC2=O)C3=S)CC1 (centres unmarked)"
measured_result = "40 to 53%"


QUERY: Return the recorded inhibition at 0.5 µM value; entry: O=C1CCC(N2Cc3cc(CN4CCN(c5ncnc6scc(-c7ccccc7)c56)CC4)ccc3C2=S)C(=O)N1 (centres unmarked)
RESULT: 60 to 80%

QUERY: Return the recorded inhibition at 0.5 µM value; entry: O=C1CCC(N2Cc3c(CN4CC=C(c5ccoc5)CC4)cccc3C2=S)C(=O)N1 (centres unmarked)
RESULT: 40 to 53%

QUERY: Return the recorded inhibition at 0.5 µM value; entry: O=C1CCC(N2Cc3cc(CN4CCN(c5ccnc(F)c5F)CC4)ccc3C2=S)C(=O)N1 (centres unmarked)
RESULT: 60 to 80%

QUERY: Return the recorded inhibition at 0.5 µM value; entry: O=C1CCC(N2Cc3c(CN4CCN(c5nccc(Cl)c5Br)CC4)cccc3C2=S)C(=O)N1 (centres unmarked)
RESULT: 40 to 53%

###

Here, each record is paired with measured pIC50 data.
molecular target: human Cereblon WT GST-tagged protein (Homo sapiens); construct: purchased CISBIO 64BDCRBNPEH; assay: CRBN-binding affinity, HTRF (CEREBLON BINDING kit); conditions: CRBN binding, HTRF, 3 hours at room temperature; read-out: HTRF IC50
pIC50: −log10 of the molar value.

Consider the worked cases shown below.
[[record]]
compound = "O=C1CCC(N2Cc3cc(CN4CCN(C(c5ccccc5)c5ccccc5)CC4)ccc3C2=S)C(=O)N1 (centres unmarked)"
measured_result = "6.00 to 6.30"

[[record]]
compound = "O=C1CCC(N2Cc3cc(CN4CCc5sccc5C4)ccc3C2=S)C(=O)N1 (centres unmarked)"
measured_result = "> 7.00"


QUERY: Return the recorded pIC50 value; entry: CC1(C)CCC(CN2CCN(Cc3ccc4c(c3)CN(C3CCC(=O)NC3=O)C4=S)CC2)=C(c2ccc(Cl)cc2)C1 (centres unmarked)
RESULT: 6.00 to 6.30

QUERY: Return the recorded pIC50 value; entry: O=C1CCC(N2Cc3cc(CN4CC=C(c5cccc6cnccc56)CC4)ccc3C2=S)C(=O)N1 (centres unmarked)
RESULT: 6.30 to 7.00

QUERY: Return the recorded pIC50 value; entry: O=C1CCC(N2Cc3cc(CN4CCN(c5nsc6ccccc56)CC4)ccc3C2=S)C(=O)N1 (centres unmarked)
RESULT: > 7.00

QUERY: Return the recorded pIC50 value; entry: O=C1CCC(N2Cc3ccc(CN4CCN(c5cccc(Cl)c5Cl)CC4)cc3C2=S)C(=O)N1 (centres unmarked)
RESULT: 6.30 to 7.00

QUERY: Return the recorded pIC50 value; entry: O=C1CCC(N2Cc3cc(CN4C[C@@H]5C[C@H]4CN5c4cccc(Cl)c4Cl)ccc3C2=S)C(=O)N1 (some centres unmarked)
RESULT: 6.30 to 7.00

QUERY: Return the recorded pIC50 value; entry: Cc1ccc(N2CCN(Cc3ccc4c(c3)CN(C3CCC(=O)NC3=O)C4=S)CC2)s1 (centres unmarked)
RESULT: 6.30 to 7.00

QUERY: Return the recorded pIC50 value; entry: O=C1CCC(N2Cc3c(CN4CCC(c5noc6cc(F)ccc56)CC4)cccc3C2=S)C(=O)N1 (centres unmarked)
RESULT: 6.30 to 7.00

QUERY: Return the recorded pIC50 value; entry: O=C1CCC(N2Cc3ccc(CN4CCN(c5cccc6sccc56)CC4)cc3C2=S)C(=O)N1 (centres unmarked)
RESULT: 6.30 to 7.00

QUERY: Return the recorded pIC50 value; entry: Cc1ccc(C2=CCN(Cc3ccc4c(c3)CN(C3CCC(=O)NC3=O)C4=S)CC2)s1 (centres unmarked)
RESULT: 6.30 to 7.00

Measured values drawn from patent EP4745135A1 for this set.
